Tested on: OVCAR-8
Test: NCI tumour cell line growth inhibition, 48 h
Calls of active or inactive are those of the source. Cut-off read from the data, not from the text of the source: active = GI50 up to about 1.1 µM and inactive = higher.
Consider the following molecules and their measured GI50 readings.

As a guide, the following entries are already answered.
{"molecule": "N#Cc1c(N)[nH]c(=S)c(C#N)c1-c1cccc(Cl)c1", "test.system": "OVCAR-8", "GI50": "30.1 µM (inactive)"}
{"molecule": "Cc1cc(C)c2c(=O)n(CN3CC4Nc5ccccc5C4C3)sc2n1 (stereo not given)", "test.system": "OVCAR-8", "GI50": "21.2 µM (inactive)"}
{"molecule": "O=C(c1ccco1)c1ccccc1C(=O)c1ccco1", "test.system": "OVCAR-8", "GI50": "> 100 µM (inactive)"}
{"molecule": "CC(=O)c1ccc(NC(=O)/C(=N\\NC(N)=O)C(C#N)CC(C)(C)C=O)cc1 (stereo not given)", "test.system": "OVCAR-8", "GI50": "> 100 µM (inactive)"}
{"molecule": "CCOC(=O)Cc1cc(=O)oc2cc(O)ccc12", "test.system": "OVCAR-8", "GI50": "> 100 µM (inactive)"}
{"molecule": "CC(=O)c1ccc(OCC(O)CO)cc1 (stereo not given)", "test.system": "OVCAR-8", "GI50": "> 100 µM (inactive)"}
{"molecule": "CC[C@@]12CCC(=S)N(CCSc3ccccc3)[C@@H]1c1c(n(S(=O)(=O)c3ccc(OC)cc3)c3ccccc13)CC2", "test.system": "OVCAR-8", "GI50": "> 100 µM (inactive)"}
{"molecule": "CSC(=N/C=C/c1ccccc1)SC", "test.system": "OVCAR-8", "GI50": "> 100 µM (inactive)"}
{"molecule": "C#CCNC(=O)ON1C(=O)CCC1=O", "test.system": "OVCAR-8", "GI50": "> 100 µM (inactive)"}
{"molecule": "CC(C)Oc1c(O)c2c3c(oc(=O)n3C=CC2c2ccccc2F)c1OC(C)C (stereo not given)", "test.system": "OVCAR-8", "GI50": "41.8 µM (inactive)"}

Under OVCAR-8: GI50 value of `CCOC(=O)/C(=C/c1ccco1)P(=O)(OCC)OCC` ? > 100 µM (inactive)

Under OVCAR-8: GI50 value of `CNC(=O)N(CCC#N)CCN(C(=O)NC)c1ccccc1` ? > 100 µM (inactive)

Under OVCAR-8: GI50 value of O=C(CC1(O)C(=O)Nc2ccccc21)c1ccc2ccccc2c1 (stereo not given) ? > 100 µM (inactive)

Under OVCAR-8: GI50 value of CCCC(C(=O)Nc1cccc2nc[nH]c12)C(=O)OCC (stereo not given) ? > 100 µM (inactive)

Under OVCAR-8: GI50 value of O=C1Oc2cc(O)cc(/C=C/c3ccc(O)cc3)c2[C@@]12c1c(O)cc(O)cc1OC2c1cccc(O)c1 (stereo not given in full) ? 41.2 µM (inactive)
